Target: Botulinum neurotoxin type A light chain (Clostridium botulinum A ATCC 3502)
Experiment: BoNT/A light chain protease inhibitors, dose response, biochemical, powder set 03 (AID 720673)
Conditions: BoNT/A LC protease, multiplex microsphere substrate cleavage assay
The source made the active and inactive calls. The rule behind the calls is not given here.
API: response.call in 1 (active), -1 (inactive)

A selection of reference data follows.
Fc1ccc(-c2cn3nc(-c4ccccc4)c(-c4ccccc4)nc3n2)cc1 :: -1
CS(=O)(=O)c1ccc(-c2cn3nc(-c4ccc(F)cc4)c(-c4ccc(F)cc4)nc3n2)cc1 :: -1
CCCOC(=O)Nc1ccc2nc(-c3ccccc3)c(-c3ccccc3)nc2c1 :: -1
CCCS(=O)(=O)Nc1ccc2nc(-c3ccccc3)c(-c3ccccc3)nc2c1 :: -1
COc1ccc(-c2cn3nc(-c4ccccc4)c(-c4ccccc4)nc3n2)c(OC)c1 :: 1
Cc1ccc(-c2cn3nc(-c4ccc(C)cc4)c(-c4ccc(C)cc4)nc3n2)cc1 :: 1

Any idea what this test logged for COc1ccc(-c2cn3nc(-c4ccc(C)cc4)c(-c4ccc(C)cc4)nc3n2)cc1 ? 1

Any idea what this test logged for O=C(Nc1ccc2nc(-c3cccs3)c(-c3cccs3)nc2c1)C1CCC1 ? -1

Any idea what this test logged for O=C(Nc1ccc2nc(-c3cccs3)c(-c3cccs3)nc2c1)C1CC1 ? -1

Any idea what this test logged for Cc1ccc(-c2nc3nc(-c4ccccc4)cn3nc2-c2ccc(C)cc2)cc1 ? 1
